For each record, write down the corresponding refractive index.
# ASSAY_OVERVIEW: refractive index (Na D-line) (dimensionless); xn = mol fraction of the nth substance listed
# EXPERIMENTAL_CONDITIONS: 298.15 K; 100.5 kPa; Liquid; Standard Abbe refractometry; x1 = 0.65
Format: numeric value only, no unit, no commentary.

Ask | What value of measured refractive index is listed for CC(=O)OCCC(C)C [3-methylbutyl ethanoate] + CCO ?
Reply | 1.39144

Ask | And the next one, CCCCCC(=O)OCC [ethyl hexanoate] + CCO ?
Reply | 1.39763

Ask | Try this molecule too: CCOC(=O)Cc1ccccc1 [ethyl phenylacetate] + CCO
Reply | 1.47324

Ask | Also, CCCCCCCC(=O)OCC [ethyl octanoate] + CCO please.
Reply | 1.40776

Ask | Next molecule up: CCCC(=O)OCCC(C)C [3-methylbutyl butanoate] + CCO
Reply | 1.401

Ask | Field entry: CCOC(=O)c1ccccc1 [ethyl benzoate] + CCO
Reply | 1.4784
